Source: patent US20250333501A1

Could you please report measured pEC50 for the items listed next?
- tgt: T1, CLDN6 endogenously expressed by human cancer cell lines (ARK2, OVCA429) (human, UniProt P56747 1-220)
- T1 construct: Untagged endogenous protein; also called Endogenous CLDN6+
- T1 sequence: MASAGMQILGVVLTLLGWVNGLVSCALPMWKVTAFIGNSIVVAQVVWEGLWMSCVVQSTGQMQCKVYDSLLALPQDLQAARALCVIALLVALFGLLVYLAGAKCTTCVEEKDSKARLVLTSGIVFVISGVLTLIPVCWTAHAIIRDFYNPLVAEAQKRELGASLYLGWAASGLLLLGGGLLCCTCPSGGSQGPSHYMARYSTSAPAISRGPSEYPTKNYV
- experiment-description: FACS, AF647-labelled mAb, OVCA429 cells
Worth noting: pEC50 values are minus log10 of concentrations stated in mol/L.

Query block: Returns the measured pEC50 for the input binder. Input: AB11 (antibody, V domains shown, Labelled with Alexa Fluor 647 NHS ester for FACS) VH: DVQLVESGGGLVQPRGSRKLSCAASGFTFSSFGMHWVRQAPEKGLEWVAYISSDSRTIYYADTVKGRFTISRDNPTNTLFLQMTSLRSEDTAMYYCARDYGRTYEAYWGQGTLVTVSA VL: DIVLTQSPASLAVSLGQRATISCRASKSVSTSGYSYIHWYQQKPGQPPKLLIYLASNLESGVPARFSGSGSGTDFTLNIHPVEEEDAATYYCQHSRELPLTFGAGTKLELK
Result block: 6.08

Query block: Which pEC50 is reported for this binder? AB4 (antibody, V domains shown, Labelled with Alexa Fluor 647 for FACS and with Texas Red-X in the internalization assay) VH: QVQLQQSGAELARPGASVKMSCKASGYTFTSYTMHWIKQRPGQGQEWIGYINPSSTYTHYIKKFKDKATLTADKSSSTAYMQLRSLTSEDSAVYYCSRGELGGFAYWGQGTLVTVSA VL: DVVMTQTPLSLPVSLGDQASISCRSSQSLVHSDGNTYLNWYLQKPGQSPKLLIYKVSNRFSGVPDRFSGSGSGTDFTLKIRRVEAEDLGVYFCSQSTHVPYTFGGGTKLEIK
Result block: 6.77

Query block: Requested read-out: pEC50. Entry: AB1 (antibody, V domains shown, Labelled with Alexa Fluor 647 NHS ester for FACS) VH: QVQLQQSAAELARPGASVKMSCKASGYTFTTYTMHWVKQRPGQGLEWIGFINPSSGYTDYNQKFKDRTTLTADKSSSTVYMQLSSLTSEDSAVYYCANGDYYVAYWGQGTLVTVSA VL: QIVLTQSPAIMSASLGERVTMTCTASSSVSSTYFHWYQQKPGSSPKLWIYSTSNLASGVPRRFSGSASGTSYSLTISSMEAEDAATYYCHQYHRSPLTFGAGTKLELK
Result block: 7.08
